What relative binding affinity was measured for each of the following?
System: estrogen receptor (rat uterine cytosol)
Experiment: DSSTox (NCTRER) National Center for Toxicological Research Estrogen Receptor Binding Database;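 also: ratio of estradiol IC50 over compound IC50 times 100 so estradiol equals 100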
Settings: rat uterine cytosol ER competitive binding, RBA; ChemClass_ERB: Diphenylmethanes DDTs; active compounds read high
Records with an inconclusive call do not appear.
Give bare numbers, in %.

Oc1ccc(C(c2ccc(O)cc2)C(Cl)(Cl)Cl)cc1
0.251

Report relative binding affinity for each item below.
1. Oc1ccc(C(=C(Cl)Cl)c2ccc(O)cc2)cc1
2. COc1ccc(C(=C(Cl)Cl)c2ccc(O)cc2)cc1
3. COc1ccc(C(c2ccc(O)cc2)C(Cl)(Cl)Cl)cc1 (stereo not given)
4. Clc1ccc(C(c2ccccc2Cl)C(Cl)(Cl)Cl)cc1 (stereo not given)

Response:
1. 2.63
2. 0.234
3. 0.129
4. 0.00141

----------
Test system: estrogen receptor (rat uterine cytosol)
Assay: DSSTox (NCTRER) National Center for Toxicological Research Estrogen Receptor Binding Database;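 also: ratio of estradiol IC50 over compound IC50 times 100 so estradiol equals 100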
Conditions: rat uterine cytosol ER competitive binding, RBA; ChemClass_ERB: Diphenylmethanes Benzophenone; active compounds read high
Results filed as inconclusive are left out.
MEASURED ATTRIBUTE: relative binding affinity (%)
Answers are plain numbers, in %.

Query: Which relative binding affinity value belongs to O=C(c1ccc(O)cc1)c1ccc(O)cc1 ?
Response: 0.0035

----------
Test system: estrogen receptor (rat uterine cytosol)
Experiment: DSSTox (NCTRER) National Center for Toxicological Research Estrogen Receptor Binding Database;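 also: ratio of estradiol IC50 over compound IC50 times 100 so estradiol equals 100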
Conditions: rat uterine cytosol ER competitive binding, RBA; ChemClass_ERB: Biphenyls nonchlorinated; active compounds read high
Inconclusive results are not listed.
What relative binding affinity was measured for each of the following?
Numbers only, in %.

Oc1ccc(-c2ccccc2)cc1
0.00091

Query: Which relative binding affinity value belongs to Oc1cccc(-c2ccccc2)c1 ?
Response: 0.00036

----------
Tested on: estrogen receptor (rat uterine cytosol)
Test: DSSTox (NCTRER) National Center for Toxicological Research Estrogen Receptor Binding Database;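 also: ratio of estradiol IC50 over compound IC50 times 100 so estradiol equals 100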
Conditions: rat uterine cytosol ER competitive binding, RBA; ChemClass_ERB: Phytoestrogens Flavones; active compounds read high
Inconclusive results are not listed.
MEASURED ATTRIBUTE: relative binding affinity (%)
Answers are plain numbers, in %.

Example entries and their recorded answers appear below.
O=c1cc(-c2ccccc2)oc2ccc(O)cc12
0.00038
O=c1cc(-c2ccccc2)oc2cc(O)c(O)c(O)c12
0.0009
O=c1cc(-c2ccc(O)cc2)oc2ccc(O)cc12
0.151
O=c1c(O)c(-c2cc(O)c(O)c(O)c2)oc2cc(O)cc(O)c12
0.00177
O=c1c(O)c(-c2ccc(O)cc2)oc2ccc(O)cc12
0.447
O=c1c(O)c(-c2ccc(O)cc2O)oc2cc(O)cc(O)c12
0.00081

Query: Which relative binding affinity value belongs to O=c1c(O)c(-c2ccc(O)c(O)c2)oc2cc(O)ccc12 ?
Response: 0.00446

----------
Test system: estrogen receptor (rat uterine cytosol)
Assay: DSSTox (NCTRER) National Center for Toxicological Research Estrogen Receptor Binding Database;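 also: ratio of estradiol IC50 over compound IC50 times 100 so estradiol equals 100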
Conditions: rat uterine cytosol ER competitive binding, RBA; ChemClass_ERB: Diphenylmethanes Diphenolalkanes; active compounds read high
Excerpt: Researchers within FDA's National Center for Toxicological Research (NCTR) generated a database of experimental estrogen receptor binding results for the express purpose of developing improved QSAR models to predict ER binding affinities.The NCTR ER database is a structurally diverse set of natural, synthetic, and environmental estrogens covering most known estrogenic classes and spanning a wide range of biological activity. […]
Records with an inconclusive call do not appear.
MEASURED ATTRIBUTE: relative binding affinity (%)
Give bare numbers, in %.

Example entries and their recorded answers appear below.
O=C(O)c1ccccc1C(c1ccc(O)cc1)c1ccc(O)cc1
0.00021
CCC(C)(c1ccc(O)cc1)c1ccc(O)cc1
0.0851
CC(C)(c1ccc(O)cc1)c1ccc(O)cc1
0.0078
CC(C)(c1ccccc1)c1ccc(O)cc1
0.00501

Report relative binding affinity for each item below.
1. Oc1ccc(Cc2ccc(O)cc2)cc1
2. CC(CCC(=O)O)(c1ccc(O)cc1)c1ccc(O)cc1
3. O=C1C=CC(=C(c2ccc(O)cc2)c2ccc(O)cc2)C=C1
4. O=S1(=O)OC(c2ccc(O)cc2)(c2ccc(O)cc2)c2ccccc21
5. Oc1ccc(Cl)cc1Cc1cc(Cl)ccc1O

Response:
1: 0.00095; 2: 0.00074; 3: 0.0316; 4: 0.00056; 5: 0.0035
